# target: T1, human CD3 protein (human, UniProt P07766 23-126; P04234 22-105)
# T1 construct: ELISA coating protein; also called Human CD3D & CD3E Heterodimer Protein
# T1 sequence (P07766 23-126 limits assumed, chain 1 of 2): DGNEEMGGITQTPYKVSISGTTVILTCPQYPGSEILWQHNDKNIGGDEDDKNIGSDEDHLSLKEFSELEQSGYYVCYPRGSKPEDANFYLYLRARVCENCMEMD
# T1 sequence (P04234 22-105 limits assumed, chain 2 of 2): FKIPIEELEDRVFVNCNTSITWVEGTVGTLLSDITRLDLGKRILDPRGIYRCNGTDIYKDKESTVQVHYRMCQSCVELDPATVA
# method: ELISA, plate-coated CD3;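 also: binding to plate-immobilized human CD3 protein, bound antibody detected with peroxidase-labelled anti-human IgG and TMB, read as absorbance at 450 nm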
quantity kind: EC50 (µg/mL)

INSERT INTO assay_data (binder, readout_number) VALUES
  ('Hu155A9B1-4 (antibody, V domains shown, humanized mAb) VH: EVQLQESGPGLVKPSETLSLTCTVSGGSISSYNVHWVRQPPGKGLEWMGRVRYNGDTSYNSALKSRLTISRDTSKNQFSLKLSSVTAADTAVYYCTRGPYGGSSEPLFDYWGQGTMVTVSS VL: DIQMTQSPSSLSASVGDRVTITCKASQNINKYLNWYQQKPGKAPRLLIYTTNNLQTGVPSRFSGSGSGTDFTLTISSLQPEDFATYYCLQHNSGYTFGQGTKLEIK', 0.0164),
  ('Hu155A9B1-3 (antibody, V domains shown, humanized mAb) VH: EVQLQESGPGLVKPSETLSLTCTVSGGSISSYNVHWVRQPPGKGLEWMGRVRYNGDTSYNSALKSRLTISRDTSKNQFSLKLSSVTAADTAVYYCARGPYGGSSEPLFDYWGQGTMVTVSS VL: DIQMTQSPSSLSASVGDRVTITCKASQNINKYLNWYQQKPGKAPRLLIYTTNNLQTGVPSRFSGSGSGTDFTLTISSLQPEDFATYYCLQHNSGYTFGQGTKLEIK', 0.0322),
  ('Hu155A9B1-2 (antibody, V domains shown, humanized mAb) VH: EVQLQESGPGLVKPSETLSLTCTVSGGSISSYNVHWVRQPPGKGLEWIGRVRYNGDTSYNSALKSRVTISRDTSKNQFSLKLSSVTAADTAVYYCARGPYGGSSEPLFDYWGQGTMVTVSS VL: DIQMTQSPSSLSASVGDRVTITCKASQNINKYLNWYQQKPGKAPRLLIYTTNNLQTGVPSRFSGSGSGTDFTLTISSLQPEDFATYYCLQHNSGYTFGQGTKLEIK', 0.0264),
  ('Hu153A6B1-7 (antibody, V domains shown, humanized mAb) VH: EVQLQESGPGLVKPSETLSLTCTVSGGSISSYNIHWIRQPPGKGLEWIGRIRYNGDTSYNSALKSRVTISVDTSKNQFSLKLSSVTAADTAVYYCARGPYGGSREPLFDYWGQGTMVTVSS VL: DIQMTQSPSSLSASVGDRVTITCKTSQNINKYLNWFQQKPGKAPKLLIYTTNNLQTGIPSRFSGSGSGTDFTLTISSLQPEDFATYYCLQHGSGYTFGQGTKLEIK', 0.00678),
  ('Hu153A6B1-4 (antibody, V domains shown, humanized mAb) VH: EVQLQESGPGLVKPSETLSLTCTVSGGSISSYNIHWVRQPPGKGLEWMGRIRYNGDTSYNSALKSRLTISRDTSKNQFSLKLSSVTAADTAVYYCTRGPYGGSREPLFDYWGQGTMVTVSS VL: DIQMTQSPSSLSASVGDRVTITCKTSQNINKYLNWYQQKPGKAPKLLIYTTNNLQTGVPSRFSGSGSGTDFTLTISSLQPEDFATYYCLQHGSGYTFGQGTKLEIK', 0.00372);
